Hey, just so you know, these numbers are from patent EP0799174B1.

System: Mycobacterium terrae ATCC 15755
Experiment: Germ carrier experiment with standard cotton
Format: cell-based
Design: key: E: individual colonies; M: several colonies; +: weak growth; ++: moderate growth; +++: heavy growth; ++++: very heavy growth; ∞: lawn growth
Conditions: Rewopal MPG 40 25.0%, aromatic alcohol 2.0 %, dem. water to 100; 30'
quantity name: growth of M. terrae after action time 30'

compound: Cc1cccc(CC(C)(C)CO)c1
result value: +
--
compound: CC(C)(CO)Cc1ccccc1
result value: ++
--
compound: CCCCCC(=Cc1ccccc1)CO
result value: ++
--
compound: OCCCc1ccccc1 [Alcohol 1, 3-phenyl propanol, reference compound]
result value: ++++

* * *

Recorded size of the covered areas of the plates, E. coli for the following compounds
System: Escherichia coli ATCC 11229
Experiment: MIC values, water-insoluble (covered area of plates, solutions in acetone)
Assay type: cell-based
Settings: solution in acetone, concentration 1.00 % by wt.; 100% means no inhibiting action
Kindly provide the numeric value in % only, without the unit symbol.

compound: CCC(CO)Cc1cccc(OC)c1 (stereo not drawn)
unit text: %
result value: 100

compound: CCCCCC(CO)Cc1ccccc1 (stereo not drawn)
unit text: %
result value: 100

compound: CCC(CO)Cc1ccc(Cl)cc1 (stereo not drawn)
unit text: %
result value: 100

Which size of the covered areas of the plates, E. coli is reported for this compound? CCC(CO)Cc1ccccc1C (stereo not drawn)
100

Please report the recorded size of the covered areas of the plates, E. coli for CCC(CO)Cc1ccccc1Cl (stereo not drawn) .
100

Form field: reported size of the covered areas of the plates, E. coli of CCC(CO)Cc1ccc(Cl)c(Cl)c1 (stereo not drawn)
90

* * *

Below: a set of entries, each annotated with reported size of the covered areas of the plates, C. albicans.
Tested on: Candida albicans ATCC 10231
Test: MIC values, water-insoluble (covered area of plates, solutions in acetone)
Assay type: cell-based
Conditions: solution in acetone, concentration 1.00 % by wt.; 100% means no inhibiting action

Solved cases (3 shown):
molecule: CCC(CO)Cc1ccccc1C (stereo not drawn)
system: Candida albicans ATCC 10231
result value: 80%

molecule: CCC(CO)Cc1ccc(Cl)cc1 (stereo not drawn)
system: Candida albicans ATCC 10231
result value: 10%

molecule: C=CCC(CO)Cc1ccccc1 (stereo not drawn)
system: Candida albicans ATCC 10231
result value: 100%

What does the data say about its size of the covered areas of the plates, C. albicans? Entry: CCC(CO)Cc1ccc(C)cc1 (stereo not drawn)
90%

Recorded size of the covered areas of the plates, C. albicans for CCCCCC(CO)Cc1ccccc1 (stereo not drawn) , please?
70%

Looking for the measured size of the covered areas of the plates, C. albicans of CCC(CO)Cc1ccc(Cl)c(Cl)c1 (stereo not drawn) , can you help?
10%

Record request: size of the covered areas of the plates, C. albicans value, item CCC(CO)Cc1ccc(C)c(C)c1 (stereo not drawn)
20%

If you can, please state the reported size of the covered areas of the plates, C. albicans value of CCC(CO)Cc1ccccc1Cl (stereo not drawn) .
80%

Can you share its size of the covered areas of the plates, C. albicans? I mean this molecule: CCC(CO)Cc1cccc(OC)c1 (stereo not drawn)
100%

* * *

Listing: diameters of the inhibition zones, P. vulgaris of selected molecules
Tested on: P. vulgaris
Type: cell-based
Description: Standard formulation: • aromatic alcohol 1 part • dimethylformamide 6 parts [table] The diameters of the inhibition zones are given in mm.
Remember to follow the number with its unit.

Recorded diameters of the inhibition zones, P. vulgaris for CCC(CO)Cc1ccc(Cl)cc1 (stereo not shown) , please?
0 mm

# input molecule: CCC(CO)Cc1ccc(OC)c(OC)c1 (stereo not shown) ; wanted: its diameters of the inhibition zones, P. vulgaris
17 mm

Record request: diameters of the inhibition zones, P. vulgaris value, item CCC(CO)Cc1ccccc1C (stereo not shown)
13 mm

Give its diameters of the inhibition zones, P. vulgaris value. Item: CCC(CO)Cc1ccc(C)cc1 (stereo not shown)
14 mm

Quick check: diameters of the inhibition zones, P. vulgaris of C=CCC(CO)Cc1ccccc1 (stereo not shown) ?
13 mm

What does the record list as diameters of the inhibition zones, P. vulgaris for CCC(CO)Cc1ccc(Cl)c(Cl)c1 (stereo not shown) ?
0 mm

Requested field: diameters of the inhibition zones, P. vulgaris. Item: CCCCCC(CO)Cc1ccccc1 (stereo not shown)
0 mm

// query diameters of the inhibition zones, P. vulgaris value for entry CCC(CO)Cc1ccccc1Cl (stereo not shown)
0 mm

Record request: diameters of the inhibition zones, P. vulgaris value, item CCC(CO)Cc1ccc(C)c(C)c1 (stereo not shown)
0 mm

Could you share which diameters of the inhibition zones, P. vulgaris value was measured for CCC(CO)Cc1cccc(OC)c1 (stereo not shown) ?
18 mm
